- ASSAYED_TARGET: T1, EsCas13d, nuclease-dead (Eubacterium siraeum, UniProt B0MS50, R295A;H300A;R849A;H854A)
- T1 sequence: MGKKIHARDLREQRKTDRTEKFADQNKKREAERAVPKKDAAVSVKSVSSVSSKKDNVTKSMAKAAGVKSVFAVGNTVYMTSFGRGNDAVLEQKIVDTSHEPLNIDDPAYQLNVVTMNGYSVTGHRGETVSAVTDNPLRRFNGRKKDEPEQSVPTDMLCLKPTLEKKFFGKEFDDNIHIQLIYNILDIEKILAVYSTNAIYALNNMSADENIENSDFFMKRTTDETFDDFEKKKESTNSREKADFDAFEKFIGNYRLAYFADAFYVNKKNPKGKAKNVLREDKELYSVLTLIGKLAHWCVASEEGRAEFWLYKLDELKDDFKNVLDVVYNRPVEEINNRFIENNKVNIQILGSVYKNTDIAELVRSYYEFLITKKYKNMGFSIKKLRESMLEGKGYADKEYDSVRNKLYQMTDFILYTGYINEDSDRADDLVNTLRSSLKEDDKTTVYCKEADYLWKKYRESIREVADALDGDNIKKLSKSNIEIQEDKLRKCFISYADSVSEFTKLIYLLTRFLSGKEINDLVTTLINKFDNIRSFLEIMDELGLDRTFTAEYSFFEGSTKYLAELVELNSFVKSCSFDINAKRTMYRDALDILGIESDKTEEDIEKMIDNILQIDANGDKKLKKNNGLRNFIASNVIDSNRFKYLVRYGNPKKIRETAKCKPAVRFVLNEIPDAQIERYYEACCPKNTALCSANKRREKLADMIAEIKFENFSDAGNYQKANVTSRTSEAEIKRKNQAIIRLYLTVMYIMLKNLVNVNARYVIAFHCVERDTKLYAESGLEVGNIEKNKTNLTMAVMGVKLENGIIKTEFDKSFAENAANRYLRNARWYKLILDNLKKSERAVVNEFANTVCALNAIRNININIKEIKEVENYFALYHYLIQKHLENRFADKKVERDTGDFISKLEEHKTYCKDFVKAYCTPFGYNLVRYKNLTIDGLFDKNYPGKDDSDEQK
- METHOD_SUMMARY: crRNA (strand 1, pre-loaded); Mg2+; 40 mM Tris-HCl pH 7.5, 150 mM NaCl, 6 mM MgCl2, 1 mM DTT, 0.1% Tween-20, 0.2 mg/ml BSA; 25 C; 10 min per concentration, then washed
- CONDITIONS: tags: His6-TwinStrep-SUMO cleaved; N-terminal SNAP kept (SNAP-Surface 488); label: 3' end held by stalled T7 RNA polymerase
MEASUREMENT_NAME: Kd
Hi, when you answer, please include the unit after the number. Thanks!

Field: example entries. Status: answers known.
binder="target 1 G13A,A18C (mixed) RNA 1: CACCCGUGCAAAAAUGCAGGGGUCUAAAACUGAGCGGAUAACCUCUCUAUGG RNA 2: GGGAAUGGAUCCACAUCUACGAAUUCGUACCAUCGAGAAGUUAUCCGCUCACCGAGAUCGGAAGAGCACACGU" measurement_name=Kd recorded_measurement="51 nM"
binder="target 2 MT 5'PFS GUG 3'PFS CGA (mixed) RNA 1: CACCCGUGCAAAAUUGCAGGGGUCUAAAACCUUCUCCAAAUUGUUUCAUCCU RNA 2: GGGAAUGGAUCCACAUCUACGAAUUCGUGAGGAUGAAACAAUUUGGAGAAGCGAAGAUCGGAAGAGCACACGU" measurement_name=Kd recorded_measurement="12.8 nM"
binder="target 3 G3A,C6A (mixed) RNA 1: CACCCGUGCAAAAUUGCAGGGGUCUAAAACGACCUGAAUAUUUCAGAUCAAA RNA 2: GGGAAUGGAUCCACAUCUACGAAUUCGUUUUUGAUCUGAAAUAUUAAGAUCUGCAGAUCGGAAGAGCACACGU" measurement_name=Kd recorded_measurement="51.5 nM"

Query block: Kd lookup needed for target 1 MT 5'PFS AAA 3'PFS UAG (mixed) RNA 1: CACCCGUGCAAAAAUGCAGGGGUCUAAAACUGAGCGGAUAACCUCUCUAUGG RNA 2: GGGAAUGGAUCCACAUCUACGAAUUCAAACCAUAGAGAGGUUAUCCGCUCAUAGAGAUCGGAAGAGCACACGU , thanks.
Result block: 12.9 nM

Query block: Would you kindly repeat that for target 1 insA 3' of 4,insA 3' of 2 (mixed) RNA 1: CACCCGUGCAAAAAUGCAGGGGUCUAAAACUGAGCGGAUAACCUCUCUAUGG RNA 2: GGGAAUGGAUCCACAUCUACGAAUUCGUACCAUAGAGAGGUUAUCCGCAUCAACCGAGAUCGGAAGAGCACACGU ?
Result block: 6.2 nM

Query block: Would you kindly repeat that for target 1 G5A,G17C (mixed) RNA 1: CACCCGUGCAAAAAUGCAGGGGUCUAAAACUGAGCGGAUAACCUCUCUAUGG RNA 2: GGGAAUGGAUCCACAUCUACGAAUUCGUACCAUACAGAGGUUAUCCACUCACCGAGAUCGGAAGAGCACACGU ?
Result block: 80 nM

Query block: Would you kindly repeat that for target 2 MT 5'PFS GCU 3'PFS UAU (mixed) RNA 1: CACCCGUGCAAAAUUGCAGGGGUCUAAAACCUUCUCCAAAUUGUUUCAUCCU RNA 2: GGGAAUGGAUCCACAUCUACGAAUUCGCUAGGAUGAAACAAUUUGGAGAAGUAUAGAUCGGAAGAGCACACGU ?
Result block: 11 nM

Query block: Would you kindly repeat that for target 1 U10C,U19A (mixed) RNA 1: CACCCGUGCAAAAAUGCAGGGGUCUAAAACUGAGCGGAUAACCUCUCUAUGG RNA 2: GGGAAUGGAUCCACAUCUACGAAUUCGUACCAAAGAGAGGUCAUCCGCUCACCGAGAUCGGAAGAGCACACGU ?
Result block: 100 nM
